target or system: cyclic GMP-AMP synthase (cGAS) (Homo sapiens)
Construct: purified recombinant full-length cGAS
Sequence (Q8N884 whole entry): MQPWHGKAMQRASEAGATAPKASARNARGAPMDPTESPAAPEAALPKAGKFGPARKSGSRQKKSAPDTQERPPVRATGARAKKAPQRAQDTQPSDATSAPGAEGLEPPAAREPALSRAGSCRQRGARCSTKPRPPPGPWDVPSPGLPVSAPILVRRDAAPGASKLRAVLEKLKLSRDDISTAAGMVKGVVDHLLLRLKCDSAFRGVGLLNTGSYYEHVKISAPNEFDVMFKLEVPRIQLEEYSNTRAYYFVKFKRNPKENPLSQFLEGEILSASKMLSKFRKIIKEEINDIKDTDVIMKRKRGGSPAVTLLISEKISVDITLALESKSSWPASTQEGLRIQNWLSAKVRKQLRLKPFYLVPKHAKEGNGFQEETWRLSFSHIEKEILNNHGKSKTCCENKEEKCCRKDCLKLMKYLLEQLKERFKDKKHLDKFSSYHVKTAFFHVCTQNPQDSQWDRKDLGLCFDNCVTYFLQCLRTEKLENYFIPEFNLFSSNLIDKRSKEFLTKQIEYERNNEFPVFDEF
run description: in vitro cGAS enzymatic assay, cGAMP production measured by HPLC-MS
readout type: pIC50
# log scale: pIC50 equals minus log10 of the concentration in mol/L

Q: What value of pIC50 has been recorded for this entry: C=C(C)C1CC=C(C=O)CC1 (stereo not shown)
A: 4.50

The reported numbers originate from paper PMC8100446.
